Biological target: Adrenergic receptor alpha-1 (Rattus norvegicus) (UniProt P15823+P23944+P43140)
Assay: Affinity for the alpha-1 adrenergic receptor determined by the displacement of [3H]prazosin from rat whole brain tissue.
Format: tissue-based
REPORTED ENDPOINT: pKi

>  <ENTRY SMILES>
CC(C)n1nc(C(=O)NC2CCN(CCNS(C)(=O)=O)CC2)c2ccccc21

>  <REPORTED ENDPOINT>
pKi

>  <RECORDED VALUE>
< 4

$$$$
>  <ENTRY SMILES>
CC(C)n1nc(C(=O)NCCN2CCCC2)c2ccccc21

>  <REPORTED ENDPOINT>
pKi

>  <RECORDED VALUE>
< 4

$$$$
>  <ENTRY SMILES>
CC(C)n1nc(C(=O)NCCCN2CCCCC2)c2ccccc21

>  <REPORTED ENDPOINT>
pKi

>  <RECORDED VALUE>
< 4.5

$$$$

---

Molecular target: Adrenergic receptor alpha-1 (Rattus norvegicus) (UniProt P15823+P23944+P43140)
Experiment: Binding affinity for Alpha-1 adrenergic receptor in rat aorta determined by block of norepinephrine induced contraction of rat aorta
Format: tissue-based

>  <ENTRY SMILES>
CC(C)n1nc(C(=O)NC2CCN(CCNS(C)(=O)=O)CC2)c2ccccc21

>  <pKb>
< 5

$$$$
>  <ENTRY SMILES>
CC(C)n1nc(C(=O)NCCN2CCC(NC(=O)OCc3ccccc3)CC2)c2ccccc21

>  <pKb>
< 5

$$$$
>  <ENTRY SMILES>
CC(C)n1nc(C(=O)NC2CCN(Cc3ccccc3)CC2)c2ccccc21

>  <pKb>
< 5

$$$$

---

Target: 5-hydroxytryptamine receptor 4 (Rattus norvegicus) (UniProt Q62758)
Sequence (Q62758 whole entry): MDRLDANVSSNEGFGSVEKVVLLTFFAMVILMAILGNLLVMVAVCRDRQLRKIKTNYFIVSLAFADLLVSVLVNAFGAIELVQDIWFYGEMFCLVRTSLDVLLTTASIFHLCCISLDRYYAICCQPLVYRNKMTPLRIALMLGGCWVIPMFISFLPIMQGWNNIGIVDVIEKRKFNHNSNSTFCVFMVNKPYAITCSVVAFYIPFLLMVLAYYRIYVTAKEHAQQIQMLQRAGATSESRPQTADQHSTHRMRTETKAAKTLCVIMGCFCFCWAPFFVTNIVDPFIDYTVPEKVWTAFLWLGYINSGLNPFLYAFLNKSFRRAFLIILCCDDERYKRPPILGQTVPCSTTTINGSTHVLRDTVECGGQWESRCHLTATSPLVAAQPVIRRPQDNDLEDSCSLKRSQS
Experiment: Antagonistic activity by ability to block serotonin induced relaxation (mediated by activation of 5-hydroxytryptamine 4 receptor) in carbamylcholine (10e-6 M) contracted esophagus at a concentration of 10e-6 M.
Type: functional, tissue-based
Relaxation less than 3% is YES; Relaxation greater than or equal to 3% is NO.

>  <COMPOUND>
CC(C)n1nc(C(=O)NCCN2CCC(NS(C)(=O)=O)CC2)c2ccccc21

>  <LABEL>
NO

$$$$
>  <COMPOUND>
CC(C)n1nc(C(=O)NCCN2CCC(NC(=O)c3ccccc3)CC2)c2ccccc21

>  <LABEL>
YES

$$$$
>  <COMPOUND>
CC(C)n1nc(C(=O)NCCN2CCC(NC(=O)C(C)(C)C)CC2)c2ccccc21

>  <LABEL>
NO

$$$$
>  <COMPOUND>
CC(C)n1nc(C(=O)NC2CCN(CCc3ccccc3)CC2)c2ccccc21

>  <LABEL>
YES

$$$$
>  <COMPOUND>
CC(C)n1nc(C(=O)NC2CCN(CCN3C(=O)c4ccccc4C3=O)CC2)c2ccccc21

>  <LABEL>
NO

$$$$
>  <COMPOUND>
COc1cc(N)c(Cl)cc1C(=O)NC1CC2CCC(C1)N2C (configuration not stated)

>  <LABEL>
NO

$$$$
>  <COMPOUND>
CC(C)n1nc(C(=O)NCCN2CCC(NC(=O)OCc3ccccc3)CC2)c2ccccc21

>  <LABEL>
YES

$$$$
